System: Sweetpotato Whitefly-Crawler (Bemisia tabaci) (WF) (BEMITA)
Assay: Insecticidal test for Sweetpotato Whitefly-Crawler in foliar spray assay on cotton plants
Type: in vivo
Settings: 216 h, 200 ppm foliar spray on cotton, graded after 9 days, Abbott-corrected % control, read-out: % Control (or Mortality) rating, WF
Quick list: mortality at 200 ppm per entry.
observed property: mortality at 200 ppm

| compound | result |
| --- | --- |
| C#CCN(C(=O)C(CSCCC(F)(F)F)=NOCC)c1cn(-c2cccnc2)nc1Cl [Compound F16] | 80 to 100% |
| C#CCN(C(=O)C(CSCC1CC1(F)F)=NOC)c1cn(-c2cccnc2)nc1Cl (centres unmarked) [Compound F2] | 80 to 100% |
| CCN(C(=O)C(CS(=O)(=O)CC1CC1(F)F)=NOC)c1cn(-c2cccnc2)nc1Cl (centres unmarked) [Compound F3] | 80 to 100% |
| C=CCON=C(CSC(c1ccccc1)(c1ccccc1)c1ccccc1)C(=O)N(CC)c1cn(-c2cccnc2)nc1Cl [Compound F13] | 0 to 80% |
| CCN(C(=O)C(CS)=NOC)c1cn(-c2cccnc2)nc1Cl [Compound F9] | 0 to 80% |
| CCN(C(=O)C(CSCC1CC1(F)F)=NOC)c1cn(-c2cccnc2)nc1Cl (centres unmarked) [Compound F5] | 80 to 100% |
| C#CCN(C(=O)C(CSC(c1ccccc1)(c1ccccc1)c1ccccc1)=NOC)c1cn(-c2cccnc2)nc1Cl [Compound F4] | 0 to 80% |
| CCON=C(CSCC(F)(F)F)C(=O)N(CC)c1cn(-c2cccnc2)nc1Cl [Compound F17] | 80 to 100% |
| C#CCN(C(=O)C(CS)=NOCC)c1cn(-c2cccnc2)nc1Cl [Compound F7] | < 0% |
| CCN(C(=O)C(CSCCC(F)(F)F)=NOC)c1cn(-c2cccnc2)nc1Cl [Compound F14] | 80 to 100% |
| CON=C(C[S+]([O-])CCC(F)(F)F)C(=O)N(C)c1cn(-c2cccnc2)nc1Cl (centres unmarked) [Compound P5] | 80 to 100% |
| CCN(C(=O)C(C[S+]([O-])CCC(F)(F)F)=NOC)c1cn(-c2cccnc2)nc1Cl (centres unmarked) [Compound F18] | 80 to 100% |
| C#CCN(C(=O)C(CS)=NOC)c1cn(-c2cccnc2)nc1Cl [Compound F23] | 0 to 80% |
| CCON=C(CSC(c1ccccc1)(c1ccccc1)c1ccccc1)C(=O)N(CC)c1cn(-c2cccnc2)nc1Cl [Compound F12] | 80 to 100% |
| CCON=C(CSCCC(F)(F)F)C(=O)N(CC)c1cn(-c2cccnc2)nc1Cl [Compound F24] | 80 to 100% |
| C#CCN(C(=O)C(CSCCCC(F)(F)F)=NOC)c1cn(-c2cccnc2)nc1Cl [Compound F19] | 80 to 100% |
| CON=C(CSCCC(F)(F)F)C(=O)N(C)c1cn(-c2cccnc2)nc1Cl [Compound P4] | 80 to 100% |
